Test: In vivo pharmacokinetic study in mice (i.v. or s.c.), FAC and payload in blood
Set-up: species or system mouse
Settings: male, C57/B16, whole blood, sc; mouse; subcutaneous dosing; unconjugated Compound Va at 20 mg/kg; read-out: Payload AUC
Procedure: Pharmacokinetic studies were conducted in male C57/B16 mice; male Sprague-Dawley rats; male Beagle dogs and male Cynomolgus monkeys. 3 animals per group were used for each study performed. […] Each blood sample was precipitated with acetonitrile containing internal standard; samples were mixed and centrifuged (20 minutes 4000 RPM at 4° C.). […] Quantification was performed by LC-MS/MS (SciexAP16500 Q-trap, Shimadzu Nexera X2) using a Phenomenex Polar RP analytical column (2.5 μm particle size; 50×2 mm). […]
value.kind: AUC

Exam item: Tell me the measured AUC of COc1ccc(C(=O)N2CCC3(CCN(CCc4ccc(-c5cc6c(-c7cc(F)cc(NC(=O)N8C[C@H](CC(C)C)[C@@H](O)C8)c7C)ncnc6[nH]5)cc4)CC3)CC2)cc1N1CCC(=O)NC1=O , please.
Marked response: 15.2 µM·h
